Readout type: melting point

• C[C@@H]1OC(=O)[C@@H](NC(=O)OC(C)(C)C)CCOC[C@H]1O = 148 to 152 °C
• COc1ccnc(C(=O)N[C@H]2CCOC[C@@H](OCCCC(F)(F)F)[C@H](C)OC2=O)c1OC(C)=O = 43 to 48 °C
• C[C@@H]1OC(=O)[C@@H](NC(=O)OC(C)(C)C)CCOC[C@H]1OCCCC(F)(F)F = 80 to 83 °C

Query (compound): CC(C)CO[C@@H]1COCC[C@H](NC(=O)OC(C)(C)C)C(=O)O[C@H]1C ; field requested: melting point
99 to 103 °C
